Each item that follows carries a reported EC50.
Test system: L. infantum amastigotes
Assay: Ex vivo murine splenic explant culture, intramacrophage amastigotes
Type: cell-based
Settings: Leishmania infantum, Hec50; intramacrophage amastigotes in splenic explants, 96 h, EC50 ± SD
Give the value, in units of µM, as a plain number.

// known answers, use as guide
molecule="CCOP(=O)(OCC)c1cccc2c(-c3ccc(C)cc3)cc(-c3ccc(F)c(F)c3)nc12 [7k]" measurement=26.2
molecule="CCOP(=O)(OCC)c1cccc2c(-c3ccc(F)cc3)cc(-c3ccc(F)cc3)nc12 [7h]" measurement=24.2
molecule="CCOP(=O)(OCC)c1ccc2nc(-c3ccc(F)c(F)c3)cc(-c3ccc(C)cc3)c2c1 [7x]" measurement=33
molecule="CC(C)OP(=O)(OC(C)C)c1cccc2c(-c3ccc(F)cc3)cc(-c3ccc(F)cc3)nc12 [7n]" measurement=5.52
molecule="CC(C)OP(=O)(OC(C)C)c1cccc2c(-c3ccc(F)cc3)cc(-c3ccc(F)c(F)c3)nc12 [7o]" measurement=19.7
molecule="CCOP(=O)(OCC)c1cccc2c(-c3ccccc3)cc(-c3cccc4ccccc34)nc12 [7f]" measurement=19.7

Look up EC50: CCOP(=O)(OCC)c1cccc2c(-c3ccccc3)cc(-c3ccc(F)cc3)nc12 [7b]
14.6

Quick one: EC50 for CC(C)OP(=O)(OC(C)C)c1cccc2c(-c3ccccc3)cc(-c3ccc(F)cc3)nc12 [7l] ?
19.5

Request the reported EC50 associated with CCOP(=O)(OCC)c1cccc2c(-c3ccc(F)cc3)cc(-c3ccccc3)nc12 [7g]
11.9

* * *

System: L. infantum amastigotes
Experiment: Ex vivo murine splenic explant culture, intramacrophage amastigotes
Format: cell-based
Conditions: Leishmania infantum, Hec50; intramacrophage amastigotes in splenic explants, 96 h, EC50 ± SD
Measured Property: EC50 (µM)
Give just the number in µM; leave the unit off.

compound="CCOP(=O)(OCC)c1ccc2nc(-c3ccc(F)cc3)cc(-c3ccc(F)cc3)c2c1 [7t]" measured_property=EC50 unit_name=µM measurement=31.5
compound="CCOP(=O)(OCC)c1ccc2nc(-c3ccc(F)c(F)c3)cc(-c3ccccc3)c2c1 [7s]" measured_property=EC50 unit_name=µM measurement=14.2
compound="Cc1ccc(-c2cc(-c3ccc(F)c(F)c3)nc3c(P(=O)(OC(C)C)OC(C)C)cccc23)cc1 [7q]" measured_property=EC50 unit_name=µM measurement=13.9
compound="CCOP(=O)(OCC)c1cccc2c(-c3ccccc3)cc(-c3ccccc3)nc12 [7a]" measured_property=EC50 unit_name=µM measurement=4.03
compound="CCOP(=O)(OCC)c1cccc2c(-c3ccccc3)cc(-c3ccc(OC)cc3)nc12 [7c]" measured_property=EC50 unit_name=µM measurement=8.23
compound="CCOP(=O)(OCC)c1ccc2nc(-c3ccc(F)cc3)cc(-c3ccccc3)c2c1 [7r]" measured_property=EC50 unit_name=µM measurement=29.2

May I ask what EC50 has been recorded for CCOP(=O)(OCC)c1ccc2nc(-c3ccc(F)c(F)c3)cc(-c3ccc(F)cc3)c2c1 [7u] ?
26.4

Report EC50 for CCOP(=O)(OCC)c1cccc2c(-c3ccccc3)cc(-c3ccc4ccccc4c3)nc12 [7e] please.
20.4

Would you kindly share the measured EC50 for CCOP(=O)(OCC)c1ccc2nc(-c3ccc(F)cc3)cc(-c3ccc(C)cc3)c2c1 [7v] ?
17.6

Quick check: EC50 of CCOP(=O)(OCC)c1cccc2c(-c3ccc(C)cc3)cc(-c3ccc(F)cc3)nc12 [7j] ?
9.8

* * *

Test system: A549 (human lung adenocarcinoma cells)
Assay: CCK-8 cytotoxicity assay, A549
Type: cell-based
Conditions: A549, 48 h, read-out: Cytotoxicity IC50 Lung A549
Procedure: The cytotoxicity of the newly synthesized quinolinylphosphonates 7 was evaluated in vitro by testing their antiproliferative activities against several human cancer cell lines: A549 (human lung adenocarcinoma cells), SKOV3 (human ovarian carcinoma), and HEK293 (human embryonic kidney). In order to analyze the selective cytotoxicity facing exclusively cancerous cell lines, cytotoxicity against non-cancerous cell lines (MRC-5, lung fibroblast cells) was also evaluated. […]
Measured Property: pIC50
Reminder that pIC50 means the negative base-10 logarithm of the concentration expressed in mol/L.

Here are 5 molecules together with their reported answers.
molecule="CCOP(=O)(OCC)c1cccc2c(-c3ccccc3)cc(-c3ccc(OC)cc3)nc12 [7c]" measured_property=pIC50 measurement=4.90
molecule="CCOP(=O)(OCC)c1cccc2c(-c3ccccc3)cc(-c3ccccc3)nc12 [7a]" measured_property=pIC50 measurement=5.65
molecule="CC(C)OP(=O)(OC(C)C)c1cccc2c(-c3ccccc3)cc(-c3ccc(F)c(F)c3)nc12 [7m]" measured_property=pIC50 measurement=4.74
molecule="CCOP(=O)(OCC)c1ccc2nc(-c3ccc(F)c(F)c3)cc(-c3ccccc3)c2c1 [7s]" measured_property=pIC50 measurement=5.21
molecule="CCOP(=O)(OCC)c1ccc2nc(-c3ccc(F)cc3)cc(-c3ccc(C)cc3)c2c1 [7v]" measured_property=pIC50 measurement=6.08

Requested read-out pIC50, target or system A549 (human lung adenocarcinoma cells), entry CCOP(=O)(OCC)c1cccc2c(-c3ccccc3)cc(-c3cccc4ccccc34)nc12 [7f]
5.58

* * *

System: A549 (human lung adenocarcinoma cells)
Experiment: CCK-8 cytotoxicity assay, A549
Format: cell-based
Conditions: A549, 48 h, CCK-8, 50% growth inhibition, read-out: Cytotoxicity IC50 Lung A549
Measured Property: pIC50
In textbook form, pIC50 equals minus log to base ten of the concentration in mol/L.

// pIC50 lookup, key: CC[C@@]1(O)C(=O)OCc2c1cc1n(c2=O)Cc2cc3ccccc3nc2-1 [CPT, Camptothecin, reference compound]
9.00

* * *

Test system: A549 (human lung adenocarcinoma cells)
Assay: CCK-8 cytotoxicity assay, A549
Assay type: cell-based
Conditions: A549, 48 h, read-out: Cytotoxicity IC50 Lung A549
Measured Property: IC50 (nM)
Record the value in nM, omitting the unit from your answer.

I am curious: what IC50 value has been reported for CCOP(=O)(OCC)c1cccc2c(-c3ccccc3)cc(-c3ccccc3OC)nc12 [7d] ?
12300

# IC50 lookup, item CCOP(=O)(OCC)c1ccc2nc(-c3ccc(F)cc3)cc(-c3ccc(F)cc3)c2c1 [7t]
2850

# lookup: IC50 of CCOP(=O)(OCC)c1cccc2c(-c3ccccc3)cc(-c3ccc4ccccc4c3)nc12 [7e]
3180

Give the measured IC50 of CCOP(=O)(OCC)c1cccc2c(-c3ccc(C)cc3)cc(-c3ccc(F)cc3)nc12 [7j] .
830

Name the recorded IC50 for CCOP(=O)(OCC)c1ccc2nc(-c3ccc(F)cc3)cc(-c3ccccc3)c2c1 [7r] .
2800

* * *

Catalogue of IC50 values
Test system: HEK293 (human embryonic kidney)
Assay: CCK-8 cytotoxicity assay, HEK293
Type: cell-based
Conditions: HEK293, 48 h, CCK-8, 50% growth inhibition
Kindly answer with a numeric value in µM, unit omitted.

Below: 2 molecules and their reported IC50.
smiles_str=CCOP(=O)(OCC)c1cccc2c(-c3ccccc3)cc(-c3ccc(F)cc3)nc12 measured_property=IC50 measurement=43
smiles_str=CCOP(=O)(OCC)c1cccc2c(-c3ccccc3)cc(-c3ccc(OC)cc3)nc12 measured_property=IC50 measurement=38.3

# get_value(readout='IC50', item= CC(C)OP(=O)(OC(C)C)c1cccc2c(-c3ccc(F)cc3)cc(-c3ccc(F)c(F)c3)nc12 )
21

* * *

Tested on: HEK293 (human embryonic kidney)
Experiment: CCK-8 cytotoxicity assay, HEK293
Type: cell-based
Details: HEK293, 48 h, CCK-8, 50% growth inhibition
Decision: IC50 beneath 20 µM gives yes; IC50 meeting or exceeding 20 µM gives no.

Use these answered entries as a reference point.
compound="CCOP(=O)(OCC)c1cccc2c(-c3ccc(C)cc3)cc(-c3ccc(F)c(F)c3)nc12 [7k]" system_name="HEK293 (human embryonic kidney)" discrete_label=no
compound="CCOP(=O)(OCC)c1ccc2nc(-c3ccc(F)c(F)c3)cc(-c3ccc(C)cc3)c2c1 [7x]" system_name="HEK293 (human embryonic kidney)" discrete_label=no
compound="CCOP(=O)(OCC)c1cccc2c(-c3ccccc3)cc(-c3ccccc3OC)nc12 [7d]" system_name="HEK293 (human embryonic kidney)" discrete_label=no
compound="CCOP(=O)(OCC)c1cccc2c(-c3ccccc3)cc(-c3ccccc3)nc12 [7a]" system_name="HEK293 (human embryonic kidney)" discrete_label=no
compound="CCOP(=O)(OCC)c1cccc2c(-c3ccc(F)cc3)cc(-c3ccc(F)cc3)nc12 [7h]" system_name="HEK293 (human embryonic kidney)" discrete_label=yes

Please determine if Cc1ccc(-c2cc(-c3ccc(F)cc3)nc3c(P(=O)(OC(C)C)OC(C)C)cccc23)cc1 [7p] is below 20 µM in terms of IC50.
yes

Is 20 µM strictly greater than the compound's reported IC50? compound: CCOP(=O)(OCC)c1ccc2nc(-c3ccc(F)cc3)cc(-c3ccccc3)c2c1 [7r]
no

Is 20 µM strictly greater than the compound's reported IC50? compound: CCOP(=O)(OCC)c1ccc2nc(-c3ccc(F)c(F)c3)cc(-c3ccc(F)cc3)c2c1 [7u]
no

Item CC(C)OP(=O)(OC(C)C)c1cccc2c(-c3ccc(F)cc3)cc(-c3ccc(F)cc3)nc12 [7n] : IC50 beneath 20 µM, strictly?
yes
